Ref: the supplement of paper PMC11061612

System: 5637 (Bladder Carcinoma);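 also: after 72 h of two-drug dosing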
Experiment: Bliss excess, mean over the matrix (fraction); higher = more synergy
Where Bliss excess equals or exceeds 0.003, the correct label is label 1; where it does not, the label is label 0.

Consider the worked cases shown below.
compound	classification
CCN(CCO)CCCOc1ccc2c(Nc3cc(CC(=O)Nc4cccc(F)c4)[nH]n3)ncnc2c1 [AZD2811] + C=CCn1c(=O)c2cnc(Nc3ccc(N4CCN(C)CC4)cc3)nc2n1-c1cccc(C(C)(C)O)n1 [AZD1775] (first compound max 1 µM, partner max 1 µM)	label 0
Cc1c2c(nn1C)CSCc1cc(n(C)n1)CSc1cc(c3ccccc3c1)OCCCc1c(C(=O)O)n(C)c3c-2c(Cl)ccc13 [AZD5991] + C[C@@H]1COCCN1C2=NC(=NC(=C2)C3(CC3)[S@](=N)(=O)C)C4=C5C=CNC5=NC=C4 [AZD6738] (first compound max 1 µM, 7x7, partner max 10 µM)	label 1
COc1cc2c(cc1OCCCCCOc1cc3c(cc1OC)C(=O)N1C=C(C)C[C@H]1C=N3)N=C[C@@H]1CC(C)=CN1C2=O [SG3199] + O=C(c1cc(Cc2n[nH]c(=O)c3ccccc23)ccc1F)N1CCN(C(=O)C2CC2)CC1 [Olaparib] (first compound max 0.001 µM, 7x7, partner max 10 µM)	label 0
CN(CCO)CC[C@H](CSc1ccccc1)Nc1ccc(S(=O)(=O)NC(=O)c2ccc(N3CCC([C@@H](O)c4ccccc4-c4ccc(Cl)cc4)CC3)cc2)cc1S(=O)(=O)C(F)(F)F [AZD4320] + Cc1cc2ncnn2cc1Nc1ncc2c(n1)n(C1CCOCC1)c(=O)n2C [AZD7648] (first compound max 1 µM, 7x7, partner max 10 µM)	label 0
CC1(C)CCC(CN2CCN(c3ccc(C(=O)NS(=O)(=O)c4ccc(NCC5CCOCC5)c([N+](=O)[O-])c4)c(Oc4cnc5[nH]ccc5c4)c3)CC2)=C(c2ccc(Cl)cc2)C1 [Venetoclax] + CN(C)CCCOc1ccc(-c2ccc3ncc4c(c3c2)n(C2CCOCC2)c(=O)n4C)cn1 [AZD0156] (first compound max 1 µM, 7x7, partner max 1 µM)	label 0

In: Dear colleague, could you confirm whether Cc1c2c(nn1C)CSCc1cc(n(C)n1)CSc1cc(c3ccccc3c1)OCCCc1c(C(=O)O)n(C)c3c-2c(Cl)ccc13 [AZD5991] + C=CCn1c(=O)c2cnc(Nc3ccc(N4CCN(C)CC4)cc3)nc2n1-c1cccc(C(C)(C)O)n1 [AZD1775] (first compound max 1 µM, partner max 1 µM) has Bliss excess at or above 0.003?
Out: label 0

In: Dear colleague, could you confirm whether COc1nnc2ccc(N3CCC(c4ccc(OCCN5CCN(C)C(=O)[C@H]5C)cc4)CC3)nn12 [AZD5153] + Cn1cnc2c(F)c(Nc3ccc(Br)cc3Cl)c(C(=O)NOCCO)cc21 [Selumetinib] (first compound max 1 µM, 7x7, partner max 10 µM) has Bliss excess at or above 0.003?
Out: label 1

In: Dear colleague, could you confirm whether Cn1cnc2c(F)c(Nc3ccc(Br)cc3Cl)c(C(=O)NOCCO)cc21 [Selumetinib] + CC(C)n1c(=O)n(C)c2cnc3cc(F)c(-c4ccc(OCCCN5CCCCC5)nc4)cc3c21 [AZD1390] (first compound max 10 µM, 7x7, partner max 0.3 µM) has Bliss excess at or above 0.003?
Out: label 0

In: Dear colleague, could you confirm whether Cc1cc2ncnn2cc1Nc1ncc2c(n1)n(C1CCOCC1)c(=O)n2C [AZD7648] + C=CCn1c(=O)c2cnc(Nc3ccc(N4CCN(C)CC4)cc3)nc2n1-c1cccc(C(C)(C)O)n1 [AZD1775] (first compound max 10 µM, partner max 1 µM) has Bliss excess at or above 0.003?
Out: label 0

In: Dear colleague, could you confirm whether Cc1c2c(nn1C)CSCc1cc(n(C)n1)CSc1cc(c3ccccc3c1)OCCCc1c(C(=O)O)n(C)c3c-2c(Cl)ccc13 [AZD5991] + Cn1cnc2c(F)c(Nc3ccc(Br)cc3Cl)c(C(=O)NOCCO)cc21 [Selumetinib] (first compound max 1 µM, 7x7, partner max 3 µM) has Bliss excess at or above 0.003?
Out: label 1

In: Dear colleague, could you confirm whether Cc1c2c(nn1C)CSCc1cc(n(C)n1)CSc1cc(c3ccccc3c1)OCCCc1c(C(=O)O)n(C)c3c-2c(Cl)ccc13 [AZD5991] + CCN(CCO)CCCOc1ccc2c(Nc3cc(CC(=O)Nc4cccc(F)c4)[nH]n3)ncnc2c1 [AZD2811] (first compound max 1 µM, 7x7, partner max 1 µM) has Bliss excess at or above 0.003?
Out: label 1

In: Dear colleague, could you confirm whether COc1cccc(OCCCN)c1-c1cc(Nc2cnc(C#N)cn2)n[nH]1 [Prexasertib] + C=CCn1c(=O)c2cnc(Nc3ccc(N4CCN(C)CC4)cc3)nc2n1-c1cccc(C(C)(C)O)n1 [AZD1775] (first compound max 1 µM, partner max 1 µM) has Bliss excess at or above 0.003?
Out: label 1

In: Dear colleague, could you confirm whether Cc1c2c(nn1C)CSCc1cc(n(C)n1)CSc1cc(c3ccccc3c1)OCCCc1c(C(=O)O)n(C)c3c-2c(Cl)ccc13 [AZD5991] + CN(C)CCCOc1ccc(-c2ccc3ncc4c(c3c2)n(C2CCOCC2)c(=O)n4C)cn1 [AZD0156] (first compound max 1 µM, 7x7, partner max 1 µM) has Bliss excess at or above 0.003?
Out: label 0
